Organism: Homo sapiens
Protocol description: Selectivity ratio of Ki for human MAOA to Ki for human MAOB
Label met when Ratio Ki >= 20; otherwise not met.

Solved cases below.
1) CCCCOc1ccc(C2CNC(=O)CS2)cc1 (racemic) : met
2) O=C1CSC(c2ccc(OCc3ccccc3)cc2)CN1 (racemic) : met
3) CCCOc1ccc(C2CNC(=O)CS2)cc1 (racemic) : not met

## Input // inclusive: Ratio Ki at least 20? input: CCOc1ccc(C2CNC(=O)CS2)cc1 (racemic)
## Output not met

## Input // inclusive: Ratio Ki at least 20? input: C[C@H](N)Cc1ccccc1
## Output not met

## Input // inclusive: Ratio Ki at least 20? input: c1ccc(COc2ccc(C3CNCCS3)cc2)cc1 (racemic)
## Output met

## Input // inclusive: Ratio Ki at least 20? input: CCCOc1ccc(C2CNCCS2)cc1 (racemic)
## Output met

## Input // inclusive: Ratio Ki at least 20? input: CCOc1ccc(C2CNCCS2)cc1 (racemic)
## Output not met

## Input // inclusive: Ratio Ki at least 20? input: CCCCOc1ccc(C2CNCCS2)cc1 (racemic)
## Output met

The measurements presented in this section are drawn from ChEMBL document CHEMBL1157540.
